Target: TYK2 (Homo sapiens)
Construct: JAK1 (aa 850-1154) and TYK2 (aa 871-1187) are expressed with an N-terminally fused GST-tag; GST (N)
Sequence (P29597 871-1187): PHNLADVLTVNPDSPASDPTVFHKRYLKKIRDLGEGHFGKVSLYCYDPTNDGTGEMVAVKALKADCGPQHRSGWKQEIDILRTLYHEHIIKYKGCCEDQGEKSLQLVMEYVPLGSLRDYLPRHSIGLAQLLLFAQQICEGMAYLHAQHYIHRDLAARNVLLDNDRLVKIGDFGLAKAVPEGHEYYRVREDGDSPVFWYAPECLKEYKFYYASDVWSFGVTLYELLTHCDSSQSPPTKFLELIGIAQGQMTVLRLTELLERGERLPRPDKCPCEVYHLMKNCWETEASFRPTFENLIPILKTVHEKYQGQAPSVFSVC
Test: JAK kinase assay (HTRF, phosphorylation of synthetic peptide), TYK2
Settings: catalytic domain, ATP at Km (13 μM); read-out: TYK2 kinase inhibitory activity (EC50)
METRIC: EC50

The examples below pair each entry with its known result.
MOLECULE	EC50
CN(c1ccccc1)S(=O)(=O)N1CCN(c2ncnc3[nH]ccc23)CC12CC2	100 to 500 nM
N#CCN(CC1CCS(=O)(=O)C1)S(=O)(=O)N1CCN(c2ncnc3[nH]ccc23)CC12CC2 (centres unmarked)	< 100 nM
O=S(=O)(N(CCn1ccnc1)C1CCC1)N1CCN(c2ncnc3[nH]ccc23)CC12CC2	100 to 500 nM
CN(C)S(=O)(=O)N1CCN(c2ncnc3[nH]ccc23)CC12CC2	100 to 500 nM

Please look at the following molecule next.
IN: So what does the record say about EC50 for `O=S1(=O)CCC(CN(CCO)S(=O)(=O)N2CCN(c3ncnc4[nH]ccc34)CC23CC3)CC1` ?
OUT: < 100 nM
